Quick list: LC50 (concentration killing 50% of the cells, NCI protocol) per entry.
system: OVCAR; experiment: Growth inhibition of human OVCAR cells after 48 hrs by sulforhodamine B assay; assay type: functional

smiles text: Nn1c(-c2cc3c([nH]c4ccccc43)c(-c3ccc(O)cc3)n2)n[nH]c1=S
result: > 100 µM

smiles text: CSc1nnc(-c2cc3c([nH]c4ccccc43)c(-c3ccccc3Cl)n2)n1N
result: > 100 µM

Challenge: Respond only with LC50 (concentration killing 50% of the cells, NCI protocol) recorded for `Nn1c(-c2cc3c([nH]c4ccccc43)c(-c3ccccc3Cl)n2)n[nH]c1=S`
Response given: > 100 µM
